- TARGET OR TEST SYSTEM: Neutrophil elastase (Homo sapiens, UniProt P08246)
- Sequence (P08246 whole entry): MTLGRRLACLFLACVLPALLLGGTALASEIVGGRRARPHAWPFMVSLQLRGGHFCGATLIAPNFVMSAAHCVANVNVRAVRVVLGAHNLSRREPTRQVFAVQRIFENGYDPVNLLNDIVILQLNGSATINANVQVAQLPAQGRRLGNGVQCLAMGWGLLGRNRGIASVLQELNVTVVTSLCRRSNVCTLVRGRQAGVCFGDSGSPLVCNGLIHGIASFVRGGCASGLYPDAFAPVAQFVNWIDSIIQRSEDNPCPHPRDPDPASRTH
- TEST NAME: In vitro inhibitory activity against human neutrophil elastase (HNE) catalyzed hydrolysis of the synthetic substrate MeO-Suc-Ala- Ala-Pro-Val-pN
pKi: −log10 of the molar value.
ASSAY ENDPOINT: pKi

Use these answered entries as a reference point.
{"SUBSTANCE SMILES": "CC(C)[C@H](NC(=O)OCc1ccccc1)C(=O)N1CCC[C@H]1C(=O)N[C@H](C(=O)C(F)(F)C(=O)NCc1ccccc1)C(C)C", "pKi": 9.40}
{"SUBSTANCE SMILES": "CC(C)[C@H](NC(=O)[C@@H]1CCCN1C(=O)[C@@H](NC(=O)OCc1ccccc1)C(C)C)C(=O)C(N)=O", "pKi": 8.74}
{"SUBSTANCE SMILES": "CCOc1cccnc1C(=O)[C@@H](NC(=O)[C@@H]1CCCN1C(=O)[C@@H](NC(=O)OCc1ccccc1)C(C)C)C(C)C", "pKi": 4.06}
{"SUBSTANCE SMILES": "CC(C)[C@H](NC(=O)[C@@H]1CCCN1C(=O)[C@@H](NC(=O)OCc1ccccc1)C(C)C)C(=O)c1nnn(C)n1", "pKi": 7.31}
{"SUBSTANCE SMILES": "CC(C)[C@H](NC(=O)[C@@H]1CCCN1C(=O)[C@@H](NC(=O)OCc1ccccc1)C(C)C)C(=O)c1nnnn1C", "pKi": 6.39}

I: COC(=O)C(=O)[C@@H](NC(=O)[C@@H]1CCCN1C(=O)[C@@H](NC(=O)OCc1ccccc1)C(C)C)C(C)C
II: CC(C)[C@H](NC(=O)[C@@H]1CCCN1C(=O)[C@@H](NC(=O)OCc1ccccc1)C(C)C)C(=O)C1=N[C@@H](C)CO1
Which of the two gives a bigger number for pKi: I or II ? Answer format: the label of the selected item.
I

1: CC(C)[C@H](NC(=O)[C@@H]1CCCN1C(=O)[C@@H](NC(=O)OCc1ccccc1)C(C)C)C(=O)c1ncoc1-c1ccccc1
2: CCCCC(=O)C(=O)[C@@H](NC(=O)[C@@H]1CCCN1C(=O)[C@@H](NC(=O)OCc1ccccc1)C(C)C)C(C)C
Of 1 and 2 , which carries the smaller reported pKi figure? Answer format: the label of the selected item.
1
(1: 6.48, 2: 8.80)
